# reported pKd; entries follow
- experimental.target: T1, GST-hTEAD1(209-426) (human, UniProt P28347 209-426)
- T1 construct: A 3C protease site stands between tags and protein; also called human TEAD1; source: E. coli BL21 DE3 RIL, purified (His Trap, SEC); not shown: GST, N-terminal, kept
- T1 sequence (P28347 209-426): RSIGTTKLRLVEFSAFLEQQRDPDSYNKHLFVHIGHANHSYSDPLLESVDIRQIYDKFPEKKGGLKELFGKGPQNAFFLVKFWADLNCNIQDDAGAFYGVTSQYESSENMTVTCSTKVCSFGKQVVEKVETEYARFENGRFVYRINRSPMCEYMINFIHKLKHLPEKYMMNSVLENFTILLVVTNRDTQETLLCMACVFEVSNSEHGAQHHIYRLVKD
- procedure.text: SPR; GST-hTEAD1 or mTEAD4 amine-coupled to a CM5 chip (10 mM MES pH 6.4), peptides as analytes; 10 mM HEPES, 150 mM NaCl, 0.05% Tween-20, pH 7.4, 20 °C, 30 µL/min; steady-state fit, 1:1 model
- experimental.parameters: both partners purified
pKd: −log10 of the molar value. Bridge positions count the residues as written; N and C are the ends. Ends that are not written are not given here.

{"columns": ["binder", "sign", "pKd"],
 "data": [
  ["Ac-SVEDHFAKALGATWLQIKAA (lactam 3-18, macrocyclic VGL4 two-helix motif 4E with one alanine; numbers count on: mouse VGL4 as in PDB 4LN0; Synthesised on Rink amide resin: C-terminal amide surmised; source: synthetic peptide) [peptide 21 (alanine scan of 4E), acetylated]", "<", 4.00],
  ["Ac-SAEDHFAKALGDTWLQIKAA (lactam 3-18, macrocyclic VGL4 two-helix motif 4E with one alanine; numbers count on: mouse VGL4 as in PDB 4LN0; Synthesised on Rink amide resin: C-terminal amide surmised; source: synthetic peptide) [peptide 15 (alanine scan of 4E), acetylated]", "=", 6.00],
  ["Ac-SVEAHFAKALGDTWLQIKAA (lactam 3-18, macrocyclic VGL4 two-helix motif 4E with one alanine; numbers count on: mouse VGL4 as in PDB 4LN0; Synthesised on Rink amide resin: C-terminal amide surmised; source: synthetic peptide) [peptide 16 (alanine scan of 4E), acetylated]", "=", 6.13]
]}

Numbers sourced from paper PMC7591920.
